# TGT: T1, His-tagged human TIGIT (human, UniProt Q495A1 22-141)
# T1 construct: SPR analyte; also called human TIGIT protein; not shown: His tag
# T1 sequence: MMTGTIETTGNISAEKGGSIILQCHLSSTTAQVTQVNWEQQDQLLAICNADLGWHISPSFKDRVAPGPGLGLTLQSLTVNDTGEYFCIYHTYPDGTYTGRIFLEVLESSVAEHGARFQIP
# PROTOCOL_SUMMARY: SPR (Biacore T200), antibody captured, His-tagged TIGIT analyte
PROPERTY_NAME: koff (s⁻¹)
Number in s⁻¹, nothing else.

Reported koff for TIGIT-3 chimeric antibody (antibody, human IgG1, kappa, V domains shown, also called 3VH + 3VL) VH: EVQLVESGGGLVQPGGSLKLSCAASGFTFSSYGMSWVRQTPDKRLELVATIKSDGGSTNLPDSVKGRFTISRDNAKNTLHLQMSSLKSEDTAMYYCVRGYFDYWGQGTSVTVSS VL: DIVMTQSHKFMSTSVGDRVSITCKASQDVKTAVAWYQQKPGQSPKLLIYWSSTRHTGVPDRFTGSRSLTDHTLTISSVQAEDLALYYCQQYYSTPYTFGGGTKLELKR was 4.7e-05

Reported koff for huTIGIT-6-1 (antibody, human IgG1, kappa, V domains shown, Humanized IgG; also called 6VH6.M4 + 6VL1.M1) VH: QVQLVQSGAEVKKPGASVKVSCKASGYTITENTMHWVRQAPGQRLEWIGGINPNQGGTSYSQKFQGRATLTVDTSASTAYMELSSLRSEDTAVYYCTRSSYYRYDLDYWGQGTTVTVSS VL: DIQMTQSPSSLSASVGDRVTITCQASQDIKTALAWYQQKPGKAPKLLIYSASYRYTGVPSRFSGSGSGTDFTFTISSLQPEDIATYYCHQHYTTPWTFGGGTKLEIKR was 5.6e-05
